The measured values listed here are drawn from ChEMBL document CHEMBL4219240.

Test system: Escherichia coli
Test: Antibacterial activity against clinical isolate of Escherichia coli after 24 hrs by twofold microdilution broth method
Type: functional
Recorded measurements of MIC, one per entry

Reference set, count: 3
Annotate the compound "CCCCCC(=O)c1c2[n+](cc3c(OC)c(OC)ccc13)CCc1cc(OC)c(OC)cc1-2.[Cl-]" with its measured MIC.
250 mg/L

Annotate the compound "COc1cc2c(cc1OC)-c1c(C=O)c3ccc(OC)c(O)c3c(=O)n1CC2" with its measured MIC.
> 250 mg/L

Annotate the compound "CCCCCNC(=O)c1c2n(c(=O)c3c(OC)c(OC)ccc13)CCc1cc(OC)c(OC)cc1-2" with its measured MIC.
> 250 mg/L

---
Annotate the compound "CCCCCCCCNCc1c2n(c(=O)c3c(OC)c(OC)ccc13)CCc1cc(OC)c(OC)cc1-2" with its measured MIC.
> 250 mg/L

Annotate the compound COc1cc2c(cc1OC)-c1cc3ccc(OC)c(OC)c3c[n+]1CC2.[Cl-] [PALMATINE CHLORIDE] with its measured MIC.
> 250 mg/L

Annotate the compound "CCCCNC(=O)c1c2n(c(=O)c3c(OC)c(OC)ccc13)CCc1cc(OC)c(OC)cc1-2" with its measured MIC.
> 250 mg/L

---

Tested on: Escherichia coli
Assay: Antibacterial activity against clinical isolate of Escherichia coli after 24 hrs by twofold microdilution broth method
Type: functional
Recorded measurements of MIC, one per entry

Annotate the compound "CCCCCCCNCc1c2n(c(=O)c3c(OC)c(OC)ccc13)CCc1cc(OC)c(OC)cc1-2" with its measured MIC.
> 250 µg/mL

---
Annotate the compound "COc1cc2c(cc1OC)-c1cc3ccc(OC)c(OC)c3c(=O)n1CC2" with its measured MIC.
> 250 µg/mL

Annotate the compound "COc1cc2c(cc1OC)-c1c(C(=O)NCc3ccccc3)c3ccc(OC)c(OC)c3c(=O)n1CC2" with its measured MIC.
> 250 µg/mL

Annotate the compound "CCOC(=O)CCCc1c2[n+](cc3c(OC)c(OC)ccc13)CCc1cc(OC)c(OC)cc1-2.[Cl-]" with its measured MIC.
> 250 µg/mL

Annotate the compound "COc1cc2c(cc1OC)-c1c(C(=O)NC3CC3)c3ccc(OC)c(OC)c3c(=O)n1CC2" with its measured MIC.
> 250 µg/mL

---

Tested on: Staphylococcus aureus
Assay: Antibacterial activity against clinical isolate of Staphylococcus aureus after 24 hrs by twofold microdilution broth method
Assay type: functional
Threshold 100 µg/mL. MIC below it: y. MIC at it or above: n.

In the record for "CCCCC(=O)c1c2[n+](cc3c(OC)c(OC)ccc13)CCc1cc(OC)c(OC)cc1-2.[Cl-]" , is MIC less than 100 µg/mL?
n

In the record for "CCCNC(=O)c1c2n(c(=O)c3c(OC)c(OC)ccc13)CCc1cc(OC)c(OC)cc1-2" , is MIC less than 100 µg/mL?
n

In the record for "COc1cc2c(cc1OC)-c1c(C=O)c3ccc(OC)c(O)c3c(=O)n1CC2" , is MIC less than 100 µg/mL?
n

In the record for "CCOC(=O)CCCCCCCc1c2[n+](cc3c(OC)c(OC)ccc13)CCc1cc(OC)c(OC)cc1-2.[Cl-]" , is MIC less than 100 µg/mL?
y

In the record for "CCCCCC(=O)c1c2[n+](cc3c(OC)c(OC)ccc13)CCc1cc(OC)c(OC)cc1-2.[Cl-]" , is MIC less than 100 µg/mL?
y

In the record for "CCCCNC(=O)c1c2n(c(=O)c3c(OC)c(OC)ccc13)CCc1cc(OC)c(OC)cc1-2" , is MIC less than 100 µg/mL?
n

---

Test system: Escherichia coli
Test: Antibacterial activity against clinical isolate of Escherichia coli after 24 hrs by twofold microdilution broth method
Format: functional
Recorded measurements of MIC, one per entry

Recall the reported MIC of "COc1cc2c(cc1OC)-c1c(C(C)=O)c3ccc(OC)c(OC)c3c[n+]1CC2.[Cl-]" on Escherichia coli and write it down.
> 250 µg/mL

Recall the reported MIC of "CCOC(=O)Cc1c2[n+](cc3c(OC)c(OC)ccc13)CCc1cc(OC)c(OC)cc1-2.[Cl-]" on Escherichia coli and write it down.
> 250 µg/mL

Recall the reported MIC of "CCCCCCCCCNCc1c2n(c(=O)c3c(OC)c(OC)ccc13)CCc1cc(OC)c(OC)cc1-2" on Escherichia coli and write it down.
> 250 µg/mL

Recall the reported MIC of "CCOC(=O)CCCCc1c2[n+](cc3c(OC)c(OC)ccc13)CCc1cc(OC)c(OC)cc1-2.[Cl-]" on Escherichia coli and write it down.
> 250 µg/mL

Recall the reported MIC of C[C@H]1COc2c(N3CCN(C)CC3)c(F)cc3c(=O)c(C(=O)O)cn1c23.C[C@H]1COc2c(N3CCN(C)CC3)c(F)cc3c(=O)c(C(=O)O)cn1c23.O [LEVOFLOXACIN] on Escherichia coli and write it down.
< 1.95 µg/mL

---
Recall the reported MIC of "CCOC(=O)CCCCCCCc1c2[n+](cc3c(OC)c(OC)ccc13)CCc1cc(OC)c(OC)cc1-2.[Cl-]" on Escherichia coli and write it down.
250 µg/mL

Recall the reported MIC of "CCCCNCc1c2n(c(=O)c3c(OC)c(OC)ccc13)CCc1cc(OC)c(OC)cc1-2" on Escherichia coli and write it down.
> 250 µg/mL

Recall the reported MIC of "CCOC(=O)c1c2[n+](cc3c(OC)c(OC)ccc13)CCc1cc(OC)c(OC)cc1-2.[Cl-]" on Escherichia coli and write it down.
> 250 µg/mL

---

System: Staphylococcus aureus
Assay: Antibacterial activity against clinical isolate of Staphylococcus aureus after 24 hrs by twofold microdilution broth method
Type: functional
Threshold 100 µg/mL. MIC below it: rule met. MIC at it or above: rule not met.

In the record for "CCOC(=O)CCCCCCc1c2[n+](cc3c(OC)c(OC)ccc13)CCc1cc(OC)c(OC)cc1-2.[Cl-]" , is MIC less than 100 µg/mL?
rule met

In the record for "CCOC(=O)CCCCCc1c2[n+](cc3c(OC)c(OC)ccc13)CCc1cc(OC)c(OC)cc1-2.[Cl-]" , is MIC less than 100 µg/mL?
rule met

In the record for "CCOC(=O)CCCCc1c2[n+](cc3c(OC)c(OC)ccc13)CCc1cc(OC)c(OC)cc1-2.[Cl-]" , is MIC less than 100 µg/mL?
rule not met

In the record for "COc1cc2c(cc1OC)-c1cc3ccc(OC)c(OC)c3c(=O)n1CC2" , is MIC less than 100 µg/mL?
rule not met

In the record for "CCOC(=O)Cc1c2[n+](cc3c(OC)c(OC)ccc13)CCc1cc(OC)c(OC)cc1-2.[Cl-]" , is MIC less than 100 µg/mL?
rule not met

---
In the record for "CCCCCCNCc1c2n(c(=O)c3c(OC)c(OC)ccc13)CCc1cc(OC)c(OC)cc1-2" , is MIC less than 100 µg/mL?
rule not met

In the record for "COc1cc2c(cc1OC)-c1c(C(=O)O)c3ccc(OC)c(OC)c3c(=O)n1CC2" , is MIC less than 100 µg/mL?
rule not met

---

Tested on: Escherichia coli
Assay: Antibacterial activity against clinical isolate of Escherichia coli after 24 hrs by twofold microdilution broth method
Format: functional
Recorded measurements of MIC, one per entry

Reference set, count: 2
Annotate the compound "CCCCCCNCc1c2n(c(=O)c3c(OC)c(OC)ccc13)CCc1cc(OC)c(OC)cc1-2" with its measured MIC.
> 250 µg/mL

Annotate the compound "CCCCCNCc1c2n(c(=O)c3c(OC)c(OC)ccc13)CCc1cc(OC)c(OC)cc1-2" with its measured MIC.
> 250 µg/mL

---
Annotate the compound "COc1cc2c(cc1OC)-c1c(C(=O)O)c3ccc(OC)c(OC)c3c(=O)n1CC2" with its measured MIC.
> 250 µg/mL

---

Tested on: Staphylococcus aureus
Assay: Antibacterial activity against clinical isolate of Staphylococcus aureus after 24 hrs by twofold microdilution broth method
Assay type: functional
Recorded measurements of MIC, one per entry

Reference set, count: 2
Recall the reported MIC of "COc1cc2c(cc1OC)-c1c(C(C)=O)c3ccc(OC)c(OC)c3c[n+]1CC2.[Cl-]" on Staphylococcus aureus and write it down.
> 250 µg/mL

Recall the reported MIC of "CCCC(=O)c1c2[n+](cc3c(OC)c(OC)ccc13)CCc1cc(OC)c(OC)cc1-2.[Cl-]" on Staphylococcus aureus and write it down.
250 µg/mL

---
Recall the reported MIC of "COc1cc2c(cc1OC)-c1c(C=O)c3ccc(OC)c(OC)c3c(=O)n1CC2" on Staphylococcus aureus and write it down.
> 250 µg/mL

Recall the reported MIC of COc1cc2c(cc1OC)-c1cc3ccc(OC)c(OC)c3c[n+]1CC2.[Cl-] [PALMATINE CHLORIDE] on Staphylococcus aureus and write it down.
250 µg/mL

Recall the reported MIC of "CCOC(=O)CCCc1c2[n+](cc3c(OC)c(OC)ccc13)CCc1cc(OC)c(OC)cc1-2.[Cl-]" on Staphylococcus aureus and write it down.
125 µg/mL

Recall the reported MIC of "CCCCCNCc1c2n(c(=O)c3c(OC)c(OC)ccc13)CCc1cc(OC)c(OC)cc1-2" on Staphylococcus aureus and write it down.
> 250 µg/mL

Recall the reported MIC of "C[C@H]1COc2c(N3CCN(C)CC3)c(F)cc3c(=O)c(C(=O)O)cn1c23.C[C@H]1COc2c(N3CCN(C)CC3)c(F)cc3c(=O)c(C(=O)O)cn1c23.O" on Staphylococcus aureus and write it down.
< 1.95 µg/mL
